In what follows, each item is paired with its IC50 for ROCK2 (human) (UniProt O75116).

Task item: Specify measured IC50 for O=C(NCc1nc(-c2ccncc2)n[nH]1)c1cccs1 .
Reply: ≤ 5 µM

Task item: Specify measured IC50 for O=C(NCc1nc(-c2c[nH]c3ncccc23)n[nH]1)c1ccccc1C(=O)c1ccc(F)cc1 .
Reply: > 5 µM

Task item: Specify measured IC50 for O=C(NCc1nc(-c2ccncc2)n[nH]1)c1csc2ccccc12 .
Reply: > 5 µM

Task item: Specify measured IC50 for CCCCCc1ccc(C(=O)NCc2nc(-c3ccncc3)n[nH]2)cc1 .
Reply: > 5 µM

Task item: Specify measured IC50 for O=C(NCc1nc(-c2c[nH]c3ncccc23)n[nH]1)c1ccc2c(c1)OCO2 .
Reply: > 5 µM

Task item: Specify measured IC50 for O=C(NCc1nc(-c2c[nH]c3ncccc23)n[nH]1)c1c2ccccc2cc2ccccc12 .
Reply: > 5 µM

Task item: Specify measured IC50 for O=C(NCc1nc(-c2ccncc2)n[nH]1)c1ccsc1 .
Reply: ≤ 5 µM

Task item: Specify measured IC50 for COc1ccc(NC(=O)NCc2nc(-c3ccncc3)n[nH]2)c(OC)c1 .
Reply: > 5 µM

Task item: Specify measured IC50 for Cc1c(O)ccc(C(=O)NCc2nc(-c3ccncc3)n[nH]2)c1O .
Reply: ≤ 5 µM

Task item: Specify measured IC50 for O=C(NCc1nc(-c2ccncc2)n[nH]1)c1ccc(Oc2cccc(O)c2)cc1 .
Reply: ≤ 5 µM

Task item: Specify measured IC50 for COc1ccc(C(=O)NCc2nc(-c3c[nH]c4ncccc34)n[nH]2)cc1 .
Reply: > 5 µM

Task item: Specify measured IC50 for O=C(NCc1nc(-c2ccncc2)n[nH]1)c1ccc([N+](=O)[O-])c(O)c1 .
Reply: ≤ 5 µM

Task item: Specify measured IC50 for COC(=O)c1ccc(C(=O)NCc2nc(-c3ccncc3)n[nH]2)cc1 .
Reply: ≤ 5 µM

Task item: Specify measured IC50 for O=C(NCc1nc(-c2c[nH]c3ncccc23)n[nH]1)C1=C(O)CC=CC([N+](=O)[O-])=C1 .
Reply: > 5 µM

Task item: Specify measured IC50 for CS(=O)(=O)Nc1cccc(C(=O)NCc2nc(-c3c[nH]c4ncccc34)n[nH]2)c1 .
Reply: ≤ 5 µM
